Test system: lipase
assay_remarks: Lipase/lipolysis assay (EnzChek Lipase Substrate, quenched BODIPY-fatty acid conjugate) on stored human milk; further: test concentration or dose not given here
Cut-off 900 RFU on Lipase (RFU): below means true, at or above means false.

compound	qualitative_label
O=S(=O)([O-])c1ccc(N=Nc2c(O)ccc3cc(S(=O)(=O)[O-])ccc23)cc1.[Na+].[Na+] [Sunset Yellow FCF]	true
O=C(CO)[C@@H](O)[C@@H](O)[C@H](O)CO [D-Tagatose]	false
O=C1O[C@H](CO)[C@@H](O)[C@H]1O [D-Ribonolactone]	true
O=C(O)C[C@@H](O)C(=O)O [D-Malic Acid]	true
C[C@]12CCC(=O)C=C1CC[C@@H]1[C@@H]2C(=O)C[C@@]2(C)[C@H]1CC[C@]2(O)C(=O)CO [Cortisone]	false
CC(C)(O[C@@H]1O[C@H](CO)[C@@H](O)[C@H](O)[C@H]1O)[C@H]1Oc2cc3oc(=O)ccc3cc2[C@H]1O [Smyrindioloside]	false
O=c1cc(O)c2ccccc2o1 [Compound 4-Hydroxycoumarin, 4-Hydroxycoumarin]	false
CC(=O)OC[C@H]1O[C@@H](O[C@@H]2[C@@H](O)[C@H](O[C@@H]3[C@H](O)C(C)(C)C[C@H]4C5=CC[C@@H]6[C@@]7(C)CC[C@H](O[C@@H]8O[C@H](C(=O)O)[C@@H](O)[C@H](O)[C@H]8O[C@@H]8O[C@H](CO)[C@H](O)[C@H](O)[C@H]8O[C@@H]8O[C@H](CO)[C@@H](O)[C@H](O)[C@H]8O)[C@](C)(CO)[C@@H]7CC[C@@]6(C)[C@]5(C)CC[C@@]34C)OC[C@@H]2O)[C@H](OC(C)=O)[C@@H](OC(C)=O)[C@@H]1OC(C)=O [Soyasaponin Ab]	false
C=C1C(=O)O[C@@H]2[C@H]3C(CO)=CC(=O)C3=C(C)C[C@H](OC(=O)Cc3ccc(O)cc3)[C@@H]12 [Lactupicrin]	false
Oc1cc(O)c2c(c1)O[C@H](c1ccc(O)c(O)c1)[C@H](O)C2 [(−)-Epicatechin]	false
COc1cc(/C=C/C(=O)NCCc2c[nH]c3ccc(O)cc23)ccc1O [N-Feruloylserotonin]	false
COc1cc2oc3cc(OC)c(OC)c(CC=C(C)C)c3c(=O)c2c(O)c1CC=C(C)C [Fuscaxanthone C]	true
C=C(C)[C@@H]1CCC2=CCC[C@@H](C)[C@]2(C)C1 [Valencene]	false
CC(=O)c1ccccc1N [2′-Aminoacetophenone]	false
c1cncc([C@@H]2CCCCN2)c1 (racemic) [(±) Anabasine]	false
CC1=C(C)C(=O)O[C@@H]([C@](C)(O)[C@H]2CC[C@H]3[C@@H]4[C@@H]5O[C@@H]5[C@@]5(O)CC=CC(=O)[C@]5(C)[C@H]4CC[C@]23C)C1 [Withanolide A]	true
COc1cc(O)c2c(c1)O[C@H](c1cc(O)cc(O)c1)CC2=O [Blumeatin]	true
N[C@@H](CCC(=O)N[C@@H](CSN=O)C(=O)NCC(=O)O)C(=O)O [Nitrosoglutathione]	true
CC(C)=CCc1c(O)cc(O)c2c(=O)c(-c3ccc(O)cc3)coc12 [Lupiwighteone]	false
O=C(O)C(O)C(O)C(=O)O (racemic) [DL-Tartaric acid]	false
C[C@H]1CC[C@]2(NC1)O[C@H]1C[C@H]3[C@@H]4CC[C@H]5C[C@@H](O[C@@H]6O[C@H](CO)[C@H](O[C@@H]7O[C@H](CO)[C@@H](O)[C@H](O[C@@H]8OC[C@@H](O)[C@H](O)[C@H]8O)[C@H]7O[C@@H]7O[C@H](CO)[C@@H](O)[C@H](O)[C@H]7O)[C@H](O)[C@H]6O)CC[C@]5(C)[C@H]4CC[C@]3(C)[C@H]1[C@@H]2C [Tomatine]	true
OC[C@H]1O[C@@](CO)(O[C@H]2O[C@H](CO[C@@H]3O[C@H](CO)[C@@H](O)[C@H](O)[C@H]3O)[C@@H](O)[C@H](O)[C@H]2O)[C@@H](O)[C@@H]1O [Gentianose]	false
